Attribution: patent US20180186796A1

experiment: Enzymatic stability in human plasma; format: in vitro ADME; conditions: human, pooled human plasma diluted with phosphate buffer, pH 7.4; 37° C.; read-out: Stability Human Plasma t1/2 (converted)
Answer NOT MET if half-life at 100 μM is under 4 h, and MET if it is 4 h or more.

Lookup: I'd appreciate it if you could say whether CSc1nc(N(C(=O)OCCN2CCN(C)CC2)c2cccc(Cl)c2)c2cnn(CC(Cl)c3ccccc3)c2n1 (stereo not shown) [proSi83] has half-life at 100 μM at least equal to 4 h.
Found: NOT MET

Lookup: Cool, now CSc1nc(N(CCc2ccccc2)C(=O)OCCN2CCN(C)CC2)c2cnn(CC(Cl)c3ccccc3)c2n1 (stereo not shown) [proSi35]
Found: MET

Lookup: Cool, now CN1CCN(CCOC(=O)N(Cc2ccccc2)c2ncnc3c2cnn3CC(Cl)c2ccccc2)CC1 (stereo not shown) [proS13]
Found: MET

* * *

biological target: Recombinant human Src (Homo sapiens, UniProt P12931); construct: purchased Upstate (Lake Placid, N.Y.); assay: Enzymatic assay on isolated Src; format: biochemical; conditions: read-out: Ki c-Src
Sequence (P12931 whole entry): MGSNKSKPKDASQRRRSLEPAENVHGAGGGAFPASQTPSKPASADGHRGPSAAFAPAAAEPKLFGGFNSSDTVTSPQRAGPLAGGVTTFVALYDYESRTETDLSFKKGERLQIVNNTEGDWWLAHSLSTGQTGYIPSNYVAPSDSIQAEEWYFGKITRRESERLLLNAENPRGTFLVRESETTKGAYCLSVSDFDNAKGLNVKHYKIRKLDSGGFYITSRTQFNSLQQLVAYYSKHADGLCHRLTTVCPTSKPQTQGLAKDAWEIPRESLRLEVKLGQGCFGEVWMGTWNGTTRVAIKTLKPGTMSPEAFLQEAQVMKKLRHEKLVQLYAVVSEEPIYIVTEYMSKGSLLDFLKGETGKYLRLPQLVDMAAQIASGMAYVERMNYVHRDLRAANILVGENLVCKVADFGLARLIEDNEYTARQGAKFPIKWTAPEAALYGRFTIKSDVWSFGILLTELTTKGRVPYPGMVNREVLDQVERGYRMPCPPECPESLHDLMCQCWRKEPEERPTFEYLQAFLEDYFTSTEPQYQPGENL
valueKind: Ki (µM)
Give your result in µM as a bare value.

Previously resolved entries follow.
compound | Ki (µM)
Oc1cccc(Nc2nc(SC3CCCC3)nc3c2cnn3CC(Cl)c2ccccc2)c1 (stereo not drawn) [Si330] | 0.007
CC(C)Sc1nc(Nc2cccc(O)c2)c2cnn(CC(Cl)c3ccccc3)c2n1 (stereo not drawn) [Si323] | 0.01

Lookup: Please look up its Ki: CSc1nc(Nc2cccc(O)c2)c2cnn(CC(Cl)c3ccccc3)c2n1 (stereo not drawn) [Si322]
Found: 0.03

* * *

target: recombinant Fyn (Homo sapiens); test: Enzymatic assay on isolated Fyn kinase; details: read-out: Ki Fyn
Sequence (P06241 whole entry, looked up): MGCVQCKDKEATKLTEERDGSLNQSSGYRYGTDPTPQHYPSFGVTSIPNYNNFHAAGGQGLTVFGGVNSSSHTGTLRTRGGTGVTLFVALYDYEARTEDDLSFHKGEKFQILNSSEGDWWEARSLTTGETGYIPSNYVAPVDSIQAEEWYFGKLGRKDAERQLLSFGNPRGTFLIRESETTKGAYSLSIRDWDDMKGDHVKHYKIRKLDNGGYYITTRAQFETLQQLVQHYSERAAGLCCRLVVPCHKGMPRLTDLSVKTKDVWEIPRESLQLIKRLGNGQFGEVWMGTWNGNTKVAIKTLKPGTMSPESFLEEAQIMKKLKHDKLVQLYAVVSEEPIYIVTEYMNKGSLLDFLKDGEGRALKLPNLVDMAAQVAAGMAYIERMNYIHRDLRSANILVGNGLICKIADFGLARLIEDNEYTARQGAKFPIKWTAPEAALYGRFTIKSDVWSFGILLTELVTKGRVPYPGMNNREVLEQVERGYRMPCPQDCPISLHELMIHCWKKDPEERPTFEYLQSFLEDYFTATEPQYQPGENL
Ki listing for selected molecules.
Give your result in nM as a bare value.

Previously resolved entries follow.
molecule | unitAbbreviation | observedValue
Nc1ncnc2c1c(-c1ccc(Cl)cc1)nn2CC(Cl)c1ccccc1 (centres unmarked) | nM | 70
Cc1ccc(-c2nn(CC(C)c3ccccc3)c3ncnc(N)c23)cc1 (centres unmarked) | nM | 995
OCCNc1nc(NCc2ccccc2)c2cnn(/C=C/c3ccccc3)c2n1 | nM | 1150
CCCCSc1nc(Nc2cccc(Cl)c2)c2cnn(CC(Cl)c3ccccc3)c2n1 (centres unmarked) | nM | 1400

Lookup: Any idea what Ki came out for ClC(Cn1ncc2c(NCc3ccccc3)ncnc21)c1ccccc1 (centres unmarked) on recombinant Fyn (Homo sapiens)?
Found: 3500

* * *

assay: Enzymatic stability in human plasma; type: in vitro ADME; conditions: human, pooled human plasma diluted with phosphate buffer, pH 7.4; 37° C.; read-out: Stability Human Plasma t1/2 (converted)
valueKind: half-life at 100 μM (h)
Give your result in h as a bare value.

Previously resolved entries follow.
compound | half-life at 100 μM / h
CN1CCN(CCOC(=O)N(c2ccccc2)c2ncnc3c2cnn3CC(Cl)c2ccc(Br)cc2)CC1 (stereo not shown) [proSi223] | 4.47
CN1CCN(CCOC(=O)N(c2cccc(Br)c2)c2nc(SCCN3CCOCC3)nc3c2cnn3CC(Cl)c2ccccc2)CC1 (stereo not shown) [proSi306] | 3.48

Could you now consider this next compound?
Lookup: Please look up its half-life at 100 μM: CSc1nc(N(C(=O)OCCN2CCN(C)CC2)c2cccc(Cl)c2)c2cnn(CCc3ccccc3)c2n1 [proSi214]
Found: 3.67
